# credit: PubChem BioAssay (Tox21)

test: qHTS assay to identify small molecule antagonists of the farnesoid-X-receptor (FXR) signaling pathway - cell viability counter screen (AID 743221); conditions: FXR-bla HEK293T viability, CellTiter-Glo luminescence, 16 h; series mostly up to 62.6 µM; note: % is set by controls: 0 for no effect and ±100 for the full control effect; nearly all actives have a fitted effect of over 50% in size
Results filed as inconclusive are left out. Calls of active or inactive are those of the source. Calls come from the whole dose curve; as a rule, active = well fitted cell-killing curve with a large enough effect in the repeat runs (not every such curve was filed as active); inconclusive = weak or mixed curves, or effect the other way; inactive = no such curve, though single readings can be large or run the other way.

>  <SMILES_STR>
CC(C)(C)C(=O)c1ccccc1

>  <activity change, negative = cytotoxicity>
inactive

$$$$
>  <SMILES_STR>
Cc1ccccc1N=C(N)N=C(N)N

>  <activity change, negative = cytotoxicity>
inactive

$$$$
>  <SMILES_STR>
CC1(C)OC[C@@H](COC(=O)CCc2ccc(OC[C@@H](O)CNCCNC(=O)N3CCOCC3)cc2)O1

>  <activity change, negative = cytotoxicity>
inactive

$$$$

---

assay: qHTS assay to identify small molecule agonists of the farnesoid-X-receptor (FXR) signaling pathway - cell viability counter screen (AID 743218); settings: FXR-bla HEK293T viability, CellTiter-Glo luminescence, 16 h; series mostly up to 62.6 µM; note: % is set by controls: 0 for no effect and ±100 for the full control effect; nearly all actives have a fitted effect of over 45% in size
Inconclusive results are not listed. Active and inactive are the calls of the source. Calls come from the whole dose curve; as a rule, active = well fitted cell-killing curve with a large enough effect in the repeat runs; inconclusive = weak or mixed curves, or effect the other way; inactive = no such curve, though single readings can be large or run the other way.
QUANTITY: viability change, negative = cytotoxic

Please review the entries below; each comes with its answer.
>  <MOLECULE>
CCC(C(=O)NC(=O)NC(C)=O)c1ccccc1 (stereo not drawn)

>  <viability change, negative = cytotoxic>
inactive

$$$$
>  <MOLECULE>
NC(CCC(=O)O)C(=O)O (stereo not drawn)

>  <viability change, negative = cytotoxic>
inactive

$$$$
>  <MOLECULE>
CC(C)=CCC/C(C)=C/C#N

>  <viability change, negative = cytotoxic>
inactive

$$$$
>  <MOLECULE>
CCCCOC(=O)CCC(C)=O

>  <viability change, negative = cytotoxic>
inactive

$$$$

Dear colleague, could you send me viability change, negative = cytotoxic for each of the items below? Thanks.
1. CNC(=O)Nc1ccc(Cl)c(Cl)c1
2. CCN(Cc1ccccc1)c1ccccc1
3. CCCCCCCCCCOc1cc2c(=O)c(C(=O)OCC)c[nH]c2cc1OCC

result:
1. inactive
2. inactive
3. 4.21% [at 5.95 µM] (inactive)

query: Using the record for Nc1ccccn1 , report its viability change, negative = cytotoxic.
result: inactive

---

experiment: qHTS assay for identifying genotoxic compounds that show differential cytotoxicity against isogenic chicken DT40 cell lines with known DNA damage response pathways - Rad54/Ku70 mutant cell line (AID 743015); conditions: DT40 Rad54/Ku70 mutant viability, CellTiter-Glo, 40 h; series mostly up to 66.8 µM; note: % is set by controls: 0 for no effect and ±100 for the full control effect; nearly all actives have a fitted effect of over 60% in size
Records with an inconclusive call do not appear. Active and inactive are the calls of the source. Calls follow the shape of the dose curve; as a rule, active = well fitted cell-killing curve with a large enough effect in the repeat runs; inconclusive = weak or mixed curves; inactive = no such curve, though single readings can be large or run the other way.
Parameter call: string, one of yes for active, no for inactive

Known results for compounds:
>  <COMPOUND>
CN1C(C)(C)CC(O)CC1(C)C

>  <ASSIGNED_CLASS>
no

$$$$
>  <COMPOUND>
CCN[C@H]1C[C@H](C)S(=O)(=O)c2sc(S(N)(=O)=O)cc21

>  <ASSIGNED_CLASS>
no

$$$$
>  <COMPOUND>
CCCCOCCOC(=O)COc1cc(Cl)c(Cl)cc1Cl

>  <ASSIGNED_CLASS>
no

$$$$
>  <COMPOUND>
CC(N)C12CC3CC(CC(C3)C1)C2 (centres undefined)

>  <ASSIGNED_CLASS>
no

$$$$
>  <COMPOUND>
CCCCS(=O)(=O)N[C@@H](Cc1ccc(OCCCCC2CCNCC2)cc1)C(=O)O

>  <ASSIGNED_CLASS>
no

$$$$

Proceed to the following item.
query: I would be grateful if you could indicate the recorded call for CC1=NN(c2cc(S(=O)(=O)O)ccc2Cl)C(=O)C1N=Nc1ccccc1 (centres undefined) .
result: no
